Just for reference, patent US12077503B2 is where these values come from.

System: giant foxtail (Setaria faberii)
Assay: Test A postemergence
Format: in vivo
Conditions: Setaria faberi, post-emergence, 240 h, 125 g ai/ha, postemergence, visual injury vs untreated controls after approx. 10 d; 0 = no effect, 100 = complete control; read-out: Foxtail, Giant plant response rating (0 to 100 scale)
quantity_measured: pest or weed control at 125 g/ha (%)
Number in %, nothing else.

Task: What does the data say about its pest or weed control at 125 g/ha? Entry: Cc1cccc([C@H]2CN(C)C(=O)[C@@H]2C(=O)Nc2ccc(F)c(F)c2F)c1
Output: 80

* * *

System: rice (Oryra sativa)
Assay: Test B flooded paddy test
Format: in vivo
Conditions: Flood, 250 g ai/ha; 0 to 100 scale where 0 is no effect and 100 is complete control; 13 to 15 d
quantity_measured: Plant response rating, Rice
Give the figure by itself; no unit, no explanation.

>>> df
                                   compound            quantity_measured  assay_value
0  CS(=O)(=O)c1ccccc1NC(=O)C1C(=O)NCC1c1ccc(C2CC2)cc1 (racemic) [Compound 502]  Plant response rating, Rice            0
1  CC(C)Oc1cccc(C2CN(C)C(=O)C2C(=O)Nc2ccccc2S(C)(=O)=O)c1 (centres unmarked) [Compound 653]  Plant response rating, Rice            0

Task: Recorded Plant response rating, Rice for O=C(Nc1cccc(F)c1F)C1C(=S)NCC1c1cccc(C(F)(F)F)c1 (centres unmarked) [Compound 454] , please?
Output: 15

Task: Item CN1CC(c2cccc(OC(F)F)c2)C(C(=O)Nc2ccc(F)cc2F)C1=O (centres unmarked) [Compound 617] has what recorded Plant response rating, Rice?
Output: 10

Task: Record request: Plant response rating, Rice value, item CN1CC(c2ccc(C(F)(F)F)c(F)c2)C(C(=O)Nc2cccc(F)c2F)C1=O (centres unmarked) [Compound 396]
Output: 30

Task: Find the recorded Plant response rating, Rice belonging to O=C1NCC(c2ccc(Br)cc2)C1C(=O)Nc1cccc(F)c1F (centres unmarked) [Compound 446] and report it.
Output: 0

Task: Given Cc1ccc(C2CN(C)C(=O)C2C(=O)Nc2ccccc2S(C)(=O)=O)cc1 (centres unmarked) [Compound 663] , state its recorded Plant response rating, Rice.
Output: 0

Task: Need Plant response rating, Rice of O=C1NCC(c2ccnc(C(F)(F)F)c2)C1C(=O)Nc1ccccc1F (racemic) [Compound 513] , thanks.
Output: 30

* * *

System: wheat (Triticum aestivum)
Test: Test A postemergence
Assay type: in vivo
Conditions: Postemergence, 125 g ai/ha; visual injury, 0 to 100 scale (0 no effect, 100 complete control), approx. 10 d
We begin with a simple list: items and their reported Plant response rating, Wheat.

Examples with their reported Plant response rating, Wheat follow.
In [3]: df
Out[3]:
                                   molecule                test_system  assay_value
0  Cc1cccc(C2CNC(=O)C2C(=O)Nc2ccccc2F)c1 (racemic)  wheat (Triticum aestivum)            0
1  Cc1cccc(C2CNC(=O)C2C(=O)Nc2ccccc2C(F)(F)F)c1 (racemic)  wheat (Triticum aestivum)            0
2  CC(C)Oc1cccc(C2CN(C)C(=O)C2C(=O)Nc2ccc(F)cc2F)c1 (stereo not drawn)  wheat (Triticum aestivum)           40
3  O=C1NCC(c2cccnc2)C1C(=O)Nc1ccccc1F (racemic)  wheat (Triticum aestivum)            0
4  O=C1NCC(c2ccc(-c3ccccc3)cc2)C1C(=O)Nc1ccccc1C(F)(F)F (racemic)  wheat (Triticum aestivum)            0

Here is the next item to consider.
Task: Item Cc1ccc(C2CNC(=O)C2C(=O)Nc2ccc(F)cc2F)cc1F (racemic) with wheat (Triticum aestivum) - Plant response rating, Wheat?
Output: 0

* * *

Tested on: corn (Zea mays)
Assay: Test G Post-Emergence Protocol
Assay type: in vivo
Conditions: Zea mays, post-emergence, 312 h, 62.5 g ai/ha, evaluated after 13 days, read-out: Corn damage rating (100=total damage to plant; 0=no damage to plant)
quantity_measured: plant injury at 62.5 g/ha (%)
Kindly answer with a numeric value in %, unit omitted.

As a guide, the following entries are already answered.
                                   molecule  assay_value
0  Cc1csc(NC(=O)[C@@H]2C(=O)N(C)C[C@H]2c2ccc(C(F)(F)F)cc2)c1C#N (racemic)           20
1  Cc1ccc(NC(=O)[C@@H]2C(=O)N(C)C[C@H]2c2ccc(C(F)(F)F)cc2)c(Cl)c1 (racemic)            0
2  Cc1nccc(NC(=O)[C@@H]2C(=O)N(C)C[C@H]2c2ccc(C(F)(F)F)cc2)c1C (racemic)            0
3  CN1C[C@@H](c2ccc(C(F)(F)F)cc2)[C@H](C(=O)Nc2ccon2)C1=O (racemic)            0

Task: Looking for the measured plant injury at 62.5 g/ha of Cc1ccc([C@@H]2CN(C)C(=O)[C@H]2C(=O)Nc2cccc(F)c2F)cc1Cl (racemic) , can you help?
Output: 40

Task: Bench note: what plant injury at 62.5 g/ha did Cc1c(Br)cccc1NC(=O)[C@@H]1C(=O)N(C)C[C@H]1c1ccc(C(F)(F)F)cc1 (racemic) show?
Output: 0

Task: Given CN1C[C@@H](c2ccc(C(F)(F)F)cc2)[C@H](C(=O)Nc2ncccn2)C1=O (racemic) , state its recorded plant injury at 62.5 g/ha.
Output: 0

* * *

Test system: velvetleaf (Abutilon theophrasti)
Assay: Test G Post-Emergence Protocol
Format: in vivo
Conditions: Abutilon theophrasti, post-emergence, 312 h, 250 g ai/ha, evaluated after 13 days, 100=total damage to plant, 0=no damage to plant, read-out: Velvetleaf damage rating
quantity_measured: pest or weed control at 250 g/ha (%)
# number only, unit % dropped from output

In [3]: df
Out[3]:
                                   compound  unit_annotation  assay_value
0  CCCOc1cc(C2CN(C)C(=O)C2C(=O)Nc2cccc(F)c2F)cc(C(F)(F)F)c1 (stereo not shown)                %           10
1  COc1cc(C2CN(C)C(=O)C2C(=O)Nc2cccc(F)c2F)cc(C(F)(F)F)c1F (stereo not shown)                %            0
2  CN1C[C@@H](c2ccc(C(F)(F)F)cc2)[C@H](C(=O)Nc2ccncc2F)C1=O (racemic)                %            0
3  Cc1ccc(C2CN(C)C(=O)C2C(=O)Nc2cccc(F)c2F)cc1[N+](=O)[O-] (stereo not shown)                %           10
4  CN1C[C@H](c2ccc(C(F)(F)F)cc2)[C@@H](C(=O)Nc2cnccc2S(C)(=O)=O)C1=O (racemic)                %           10

Task: Which pest or weed control at 250 g/ha value is on record for Cc1c(F)cccc1NC(=O)[C@@H]1C(=O)N(C)C[C@H]1c1ccnc(OCC(F)(F)F)c1 (racemic) ?
Output: 70

Task: What value of pest or weed control at 250 g/ha has been reported for the following compound? CN1C[C@H](c2cccc(C(F)(F)F)c2)[C@@H](C(=O)Nc2cccc(O)c2F)C1=O (racemic)
Output: 0

* * *

Tested on: corn (Zea mays)
Experiment: Test G Post-Emergence Protocol
Type: in vivo
Conditions: Zea mays, post-emergence, 312 h, 250 g ai/ha, evaluated after 13 days, read-out: damage to plant, Corn (100=total damage to plant; 0=no damage to plant)
quantity_measured: plant injury at 250 g/ha (%)
Field format: number, assumed %, no unit text.

                                   compound  unit_annotation  assay_value
0  CN1C[C@@H](c2ccc(C(F)(F)F)cc2)[C@H](C(=O)Nc2ccn[nH]2)C1=O (racemic)                %            0

Task: So what does the record say about plant injury at 250 g/ha for Cc1cc(C(F)(F)F)ccc1NC(=O)[C@H]1C(=O)N(C)C[C@@H]1c1ccc(C(F)(F)F)cc1 (racemic) ?
Output: 0

Task: What value of plant injury at 250 g/ha has been reported for the following compound? CN1C[C@H](c2ccc(C(F)(F)F)cc2)[C@@H](C(=O)Nc2ncc(F)cc2F)C1=O (racemic)
Output: 0

Task: Look at this compound and give its reported plant injury at 250 g/ha. COc1cc([C@@H]2CN(C)C(=O)[C@H]2C(=O)Nc2cccc(F)c2F)ccc1Cl (racemic)
Output: 40

Task: Give its plant injury at 250 g/ha value. Item: CN1C[C@@H](c2ccc(C(F)(F)F)cc2)[C@H](C(=O)Nc2ccnc(Cl)c2Cl)C1=O (racemic)
Output: 10

Task: Name the recorded plant injury at 250 g/ha for CN1C[C@H](c2cccc3c2OC(F)(F)O3)[C@@H](C(=O)Nc2ccccc2F)C1=O (racemic) .
Output: 10

Task: I am curious: what plant injury at 250 g/ha value has been reported for CN1C[C@@H](c2ccc(C(F)(F)F)cc2)[C@H](C(=O)Nc2cccc(F)c2C#N)C1=O (racemic) ?
Output: 10

Task: Would you mind telling me what plant injury at 250 g/ha value was observed for C=CCc1ccc(Cl)cc1NC(=O)[C@H]1C(=O)N(C)C[C@@H]1c1ccc(C(F)(F)F)cc1 (racemic) ?
Output: 20
